TARGET_UNDER_TEST: Transient receptor potential cation channel subfamily V member 1 (Rattus norvegicus, UniProt O35433)
Sequence (O35433 whole entry): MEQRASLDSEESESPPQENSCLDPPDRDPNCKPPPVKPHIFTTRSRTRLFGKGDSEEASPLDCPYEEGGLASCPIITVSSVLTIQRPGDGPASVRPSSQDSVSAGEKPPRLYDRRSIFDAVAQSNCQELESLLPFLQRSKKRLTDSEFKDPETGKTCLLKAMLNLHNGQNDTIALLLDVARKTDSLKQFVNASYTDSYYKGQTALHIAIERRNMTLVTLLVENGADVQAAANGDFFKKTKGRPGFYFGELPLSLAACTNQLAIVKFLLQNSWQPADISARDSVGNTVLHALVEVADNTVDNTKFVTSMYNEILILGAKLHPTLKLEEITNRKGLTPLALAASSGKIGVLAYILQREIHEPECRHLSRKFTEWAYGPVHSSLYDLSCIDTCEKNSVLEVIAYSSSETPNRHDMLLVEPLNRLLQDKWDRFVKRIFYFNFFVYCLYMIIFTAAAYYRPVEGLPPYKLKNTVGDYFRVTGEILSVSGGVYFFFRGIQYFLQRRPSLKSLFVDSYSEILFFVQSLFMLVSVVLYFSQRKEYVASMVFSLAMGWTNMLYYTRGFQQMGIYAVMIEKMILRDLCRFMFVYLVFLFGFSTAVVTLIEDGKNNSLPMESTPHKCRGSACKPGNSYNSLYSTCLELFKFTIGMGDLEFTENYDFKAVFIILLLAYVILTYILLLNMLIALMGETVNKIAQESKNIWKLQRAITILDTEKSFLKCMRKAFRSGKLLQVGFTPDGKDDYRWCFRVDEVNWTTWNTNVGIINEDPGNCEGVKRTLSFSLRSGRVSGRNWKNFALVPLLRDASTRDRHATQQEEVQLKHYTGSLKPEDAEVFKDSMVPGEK
EXPERIMENT_NOTES: Displacement of [3H]RTX from rat TRPV1 after 60 mins by competitive binding assay

| CHEMICAL_STRING | Ki |
| --- | --- |
| C[C@@H](NC(=S)NC[C@H](COC(=O)C(C)(C)C)Cc1ccc(C(C)(C)C)cc1)c1ccc(NS(C)(=O)=O)cc1 | 17.9 nM |
| C[C@@H](NC(=S)NC[C@@H](COC(=O)C(C)(C)C)Cc1ccc(C(C)(C)C)cc1)c1ccc(NS(C)(=O)=O)cc1 | 6.75 nM |
| CC(C)(C)C(=O)OC[C@H](CNC(=S)NCc1ccc(NS(C)(=O)=O)cc1)Cc1ccccc1 | 236 nM |

----------
Measured pKi values are reported for all entries that follow.
TARGET_UNDER_TEST: Transient receptor potential cation channel subfamily V member 1 (Rattus norvegicus, UniProt O35433)
EXPERIMENT_NOTES: Antagonist activity at rat TRPV1 heterologously expressed in CHO cells assessed as inhibition of capsaicin-induced [45Ca2+] uptake by liquid scintillation counting
Type: cell-based
pKi: −log10 of the molar value.

| CHEMICAL_STRING | pKi |
| --- | --- |
| CC(C)(C)C(=O)OC[C@@H](CNC(=S)NCc1ccc(NS(C)(=O)=O)cc1)Cc1ccc(C(C)(C)C)cc1 | 7.07 |
| Cc1ccc(C[C@H](CNC(=S)NCc2ccc(NS(C)(=O)=O)cc2)COC(=O)C(C)(C)C)cc1C | 7.17 |
| CC(C)(C)C(=O)OC[C@H](CNC(=S)NCc1ccc(NS(C)(=O)=O)cc1)Cc1ccccc1 | 7.09 |
| CC(C)(C)C(=O)OC[C@@H](CNC(=S)NCc1ccc(NS(C)(=O)=O)cc1)Cc1ccccc1 | 7.19 |
| Cc1ccc(C[C@@H](CNC(=S)N[C@H](C)c2ccc(NS(C)(=O)=O)cc2)COC(=O)C(C)(C)C)cc1C | 7.88 |
